tested on: HepG2 cells; test: cells; settings: Homo sapiens, HepG2, 48 h, read-out: IC50 HepG2 mean (Table S-1)
assay_endpoint: IC50 (µM)

                           substance_smiles  assay_endpoint  numeric_readout
0  COc1cc(/C=C/C(=O)CC(=O)/C=C/c2ccc(O)c(OC)c2)ccc1O            IC50             26.5
